tested-target: Integrin alpha-IIb/beta-3 (Homo sapiens, UniProt P08514+P05106)
Sequence (P05106 27-788 limits assumed): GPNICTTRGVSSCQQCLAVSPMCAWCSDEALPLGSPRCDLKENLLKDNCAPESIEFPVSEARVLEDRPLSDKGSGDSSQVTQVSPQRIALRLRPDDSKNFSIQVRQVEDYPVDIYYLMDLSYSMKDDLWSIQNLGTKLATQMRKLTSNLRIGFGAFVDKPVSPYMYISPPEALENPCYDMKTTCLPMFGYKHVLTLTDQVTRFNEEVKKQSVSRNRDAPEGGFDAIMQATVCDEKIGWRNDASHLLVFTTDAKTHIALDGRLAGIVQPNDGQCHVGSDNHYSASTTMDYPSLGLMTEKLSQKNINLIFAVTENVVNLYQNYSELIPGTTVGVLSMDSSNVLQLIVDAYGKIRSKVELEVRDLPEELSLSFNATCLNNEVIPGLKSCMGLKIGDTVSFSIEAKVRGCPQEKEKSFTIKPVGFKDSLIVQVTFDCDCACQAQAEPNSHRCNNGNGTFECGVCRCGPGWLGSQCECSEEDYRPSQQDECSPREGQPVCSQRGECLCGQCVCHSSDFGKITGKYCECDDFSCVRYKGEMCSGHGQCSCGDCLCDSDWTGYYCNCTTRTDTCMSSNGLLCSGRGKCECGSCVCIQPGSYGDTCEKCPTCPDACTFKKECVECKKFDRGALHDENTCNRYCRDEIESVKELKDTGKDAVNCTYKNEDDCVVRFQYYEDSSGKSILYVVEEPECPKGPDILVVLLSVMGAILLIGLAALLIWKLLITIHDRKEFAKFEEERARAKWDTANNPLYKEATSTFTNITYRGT
Sequence (P08514 32-887 limits assumed): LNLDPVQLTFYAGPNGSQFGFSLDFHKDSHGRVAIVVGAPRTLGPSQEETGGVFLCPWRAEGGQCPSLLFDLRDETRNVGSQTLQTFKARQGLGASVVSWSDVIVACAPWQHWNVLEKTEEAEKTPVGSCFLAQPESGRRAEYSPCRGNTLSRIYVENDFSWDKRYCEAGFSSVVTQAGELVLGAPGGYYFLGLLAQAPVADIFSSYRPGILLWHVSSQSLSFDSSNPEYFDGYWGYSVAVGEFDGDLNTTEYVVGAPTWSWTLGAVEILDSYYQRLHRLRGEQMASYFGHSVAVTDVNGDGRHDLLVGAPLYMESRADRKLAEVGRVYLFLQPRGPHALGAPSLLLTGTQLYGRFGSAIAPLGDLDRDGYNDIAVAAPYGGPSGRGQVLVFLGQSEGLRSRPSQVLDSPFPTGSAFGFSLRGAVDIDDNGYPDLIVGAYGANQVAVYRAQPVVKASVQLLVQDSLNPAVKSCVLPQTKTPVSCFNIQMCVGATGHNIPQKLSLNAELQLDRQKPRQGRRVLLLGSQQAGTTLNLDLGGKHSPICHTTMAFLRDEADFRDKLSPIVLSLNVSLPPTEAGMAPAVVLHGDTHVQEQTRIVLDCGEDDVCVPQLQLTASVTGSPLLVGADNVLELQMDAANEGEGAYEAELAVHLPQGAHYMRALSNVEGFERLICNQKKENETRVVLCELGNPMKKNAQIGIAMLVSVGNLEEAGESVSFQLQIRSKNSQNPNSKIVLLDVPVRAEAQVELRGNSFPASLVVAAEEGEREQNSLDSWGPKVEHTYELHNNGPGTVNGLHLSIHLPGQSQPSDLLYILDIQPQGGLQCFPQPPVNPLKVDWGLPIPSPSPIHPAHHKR
Sequence (P08514 891-1039 limits assumed): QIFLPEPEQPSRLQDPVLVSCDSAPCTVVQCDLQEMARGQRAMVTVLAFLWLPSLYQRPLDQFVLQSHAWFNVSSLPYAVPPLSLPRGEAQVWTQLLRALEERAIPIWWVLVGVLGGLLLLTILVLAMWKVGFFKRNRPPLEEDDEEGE
assay-info: Inhibition of the platelet GPIIb-IIIa receptor measured as ability to attenuate ADP-induced (fibrinogen-mediated) platelet aggregation in human platelet-rich plasma (PRP)
Could you please report measured IC50 for the items listed next?
Give bare numbers, in µM.

Record excerpt, results attached:
| compound | IC50 / µM |
| --- | --- |
| N=C(N)c1ccc(NCC(=O)NCCCCCCC(=O)O)cc1 | 67 |
| N=C(N)c1ccc2c(C(=O)NCCCCCCC(=O)O)c[nH]c2c1 | 0.65 |
| N=C(N)c1ccc2sc(C(=O)NCCCCCCC(=O)O)cc2c1 | 7.3 |

Reported IC50 ( CC(CCCCNC(=O)c1cc2cc(C(=N)N)ccc2[nH]1)CC(=O)O (stereo unspecified) ) = 2.8

* * *

tested-target: Integrin alpha-IIb/beta-3 (Homo sapiens, UniProt P08514+P05106)
assay-info: Inhibition of the platelet GPIIb-IIIa receptor measured as ability to attenuate ADP-induced (fibrinogen-mediated) platelet aggregation in human platelet-rich plasma (PRP)
readout-name: IC50 (µM)
One number for each entry, in µM.

Record excerpt, results attached:
| compound | unit-string | IC50 |
| --- | --- | --- |
| CN(CCCCCCC(=O)O)C(=O)c1cc2cc(C(=N)N)ccc2[nH]1 | µM | 3 |
| N=C(N)c1ccc2oc(C(=O)NCCCCCC(=O)O)cc2c1 | µM | 16 |

Quick request: IC50 for each listed item, please.
1. CC(CCCCCNC(=O)c1cc2cc(C(=N)N)ccc2[nH]1)C(=O)O (configuration not stated)
2. N=C(N)c1ccc2oc(C(=O)NCCCCCCC(=O)O)cc2c1
3. CCCCC(CCCCNC(=O)c1cc2cc(C(=N)N)ccc2[nH]1)CC(=O)O (configuration not stated)
4. CCCCCCC(CCCCNC(=O)c1cc2cc(C(=N)N)ccc2[nH]1)CC(=O)O (configuration not stated)
5. N=C(N)c1ccc2[nH]c(C(=O)NCC(=O)NCCCC(=O)O)cc2c1
6. N=C(N)c1ccc2c(c1)CC(C(=O)NCCCCCCC(=O)O)O2 (configuration not stated)
7. N=C(N)c1ccc2[nH]c(C(=O)NCc3ccc(CC(=O)O)cc3)cc2c1

Result:
1. 43.7
2. 0.27
3. 25.3
4. 59
5. 50
6. 3.4
7. 47

* * *

assay-info: Inhibition ADP-induced (fibrinogen-mediated) platelet aggregation in human platelet-rich plasma (PRP)
Could you please report measured IC50 for the items listed next?
One number for each entry, in µM.

Record excerpt, results attached:
| chemical-structure | IC50 [µM] |
| --- | --- |
| N=C(N)c1ccc2oc(C(=O)NCCCCCCCC(=O)O)cc2c1 | 26.7 |
| N=C(N)c1ccc2c(c1)cc(C(=O)NCCCCCCC(=O)O)n2Cc1ccccc1 | 21 |

Consider the record given below.
Reported IC50 ( "C#C[C@H](CC(=O)O)NC(=O)CCC(=O)Nc1ccc(C(=N)N)cc1" ) = 0.035

* * *

Could you please report measured IC50 for the items listed next?
tested-target: Integrin alpha-IIb/beta-3 (Homo sapiens, UniProt P08514+P05106)
assay-info: Inhibition of the platelet GPIIb-IIIa receptor measured as ability to attenuate ADP-induced (fibrinogen-mediated) platelet aggregation in human platelet-rich plasma (PRP)
Numbers only, in µM.

Record excerpt, results attached:
| compound | unit-string | value-measured |
| --- | --- | --- |
| N=C(N)c1ccc2[nH]c(C(=O)NCCCCCCC(=O)O)cc2c1 | µM | 2.8 |
| N=C(N)c1ccc2[nH]c(C(=O)NCc3ccc(CCC(=O)O)cc3)cc2c1 | µM | 39 |
| N=C(N)c1ccc2[nH]c(C(=O)NCCCC(=O)NCC(=O)O)cc2c1 | µM | 32 |
| CCC(CCCCNC(=O)c1cc2cc(C(=N)N)ccc2[nH]1)CC(=O)O (stereo not drawn) | µM | 5.2 |

Quick request: IC50 for each listed item, please.
1. N=C(N)c1ccc2[nH]c(C(=O)NCCCCC(CC(=O)O)c3ccccc3)cc2c1 (stereo not drawn)
2. N=C(N)c1ccc2cc(C(=O)NCCCCCCC(=O)O)oc2c1
3. N=C(N)c1ccc2cc(C(=O)NCCCCCCC(=O)O)[nH]c2c1
4. Cc1c(C(=O)NCCCCCCC(=O)O)[nH]c2ccc(C(=N)N)cc12
5. N=C(N)c1ccc(OCC(=O)NCCCCCCC(=O)O)cc1
6. Cn1c(C(=O)NCCCCCCC(=O)O)cc2cc(C(=N)N)ccc21
7. N=C(N)c1ccc2[nH]c(C(=O)NCCC(=O)NCCC(=O)O)cc2c1
8. N=C(N)c1ccc2c(C(=O)NCCCCCCC(=O)O)[nH]nc2c1

Result:
[4.9, 7.2, 1.3, 4.1, 2.6, 7.5, 3.6, 0.14]

FYI, the data here is from BindingDB's records for doi:10.1021/jm970020k.
